Tested on: prototrophic yeast strain (CEN.PK113-7D)
Test Details: Propidium iodide fluorescence-based CLS method in yeast (incl. high-throughput screening);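 further: untreated reference is eight DMSO and water control wells per plate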
Assay type: cell-based, Saccharomyces cerevisiae
Reported Conditions: concentration tested 100 μM; solvent DMSO or water; chronological age point Day 7 (72 h growth = Day 1); lower = more survival
Counter-ions that a name gives are not always drawn.
Could you please report measured PI intensity for the items listed next?

Supply reported PI intensity belonging to this compound: NC(=O)[C@@H]1CC[C@@H]2CN1C(=O)N2OS(=O)(=O)O [Avibactam (sodium), reference compound]
73,562.3

Supply reported PI intensity belonging to this compound: OC(CCN1CCCCC1)(c1ccccc1)C1CC2C=CC1C2 (stereo not shown) [Biperiden (Hydrochloride), reference compound]
67,178.1

Supply reported PI intensity belonging to this compound: CCCCCCCCCCCCCCC(=O)O [Pentadecanoic acid]
75,173.9

Supply reported PI intensity belonging to this compound: COc1cc(C(=O)O)ccc1O [Vanillic acid]
64,546.4

Supply reported PI intensity belonging to this compound: CC1(C)CCC2=C(O1)c1ccccc1C(=O)C2=O [β-Lapachone]
67,892.9

Supply reported PI intensity belonging to this compound: OC[C@H]1O[C@@H](Oc2cc3c(O)cc(O)cc3[o+]c2-c2ccc(O)c(O)c2)[C@H](O)[C@@H](O)[C@H]1O.[Cl-] [Cyanidin-3-O-galactoside (chloride)]
63,761.1

Supply reported PI intensity belonging to this compound: CC(O)Cn1cnc2c1c(=O)n(C)c(=O)n2C (stereo not shown) [Proxyphylline, reference compound]
72,232.1

Supply reported PI intensity belonging to this compound: COc1cc(CC(=O)O)ccc1O [Homovanillic acid]
65,033.1

Supply reported PI intensity belonging to this compound: Nc1ncnc2c1ncn2[C@H]1C[C@H](O)[C@@H](CO)O1 [2′-Deoxyadenosine]
70,796.4

Supply reported PI intensity belonging to this compound: NCCCNCCSP(=O)(O)O [Amifostine, reference compound]
69,013.2

Supply reported PI intensity belonging to this compound: Cl.N[C@H]1C(O)O[C@H](CO)[C@@H](O)[C@@H]1O (stereo partly shown) [Glucosamine (hydrochloride)]
65,905.5

Supply reported PI intensity belonging to this compound: COC(=O)C1=CO[C@@H](O[C@@H]2O[C@H](CO)[C@@H](O)[C@H](O)[C@H]2O)[C@H]2[C@@H]1C=C[C@@]2(O)CO [Gardenoside]
65,525.5

Supply reported PI intensity belonging to this compound: O=C1NC(c2ccccc2)(c2ccccc2)C(=O)N1COP(=O)(O)O [Fosphenytoin (disodium), reference compound]
61,860.0

Supply reported PI intensity belonging to this compound: NC[C@H](CC(=O)O)c1ccc(Cl)cc1 [(R)-Baclofen, reference compound]
61,049.3

Supply reported PI intensity belonging to this compound: CC(=O)OCC(=O)[C@@]1(OC(C)=O)[C@@H](C)C[C@H]2[C@@H]3C[C@H](F)C4=CC(=O)C=C[C@]4(C)[C@@]3(F)[C@@H](O)C[C@@]21C [Diflorasone, reference compound]
71,051.3

Supply reported PI intensity belonging to this compound: C[C@H]1CNCCCN1S(=O)(=O)c1cccc2cncc(F)c12 [Ripasudil, reference compound]
77,962.0
